# METHOD SUMMARY: Thermodynamic equilibrium aqueous solubility in pH 6.5 solution at 1 mg/ml after 15 to 24 hrs by UV-HPLC method
# Format: physicochemical
# COND: aqueous pH 6.5 solution, read-out: Therm_solubility
RECORDED ENDPOINT: solubility thermodynamic (µg/mL)

P = CC(C)[C@H](N)C(=O)OCOC(=O)N(c1c(Cl)cc(OC(F)F)cc1Cl)c1nc(Cl)cn([C@@H](C)C2CC2)c1=O.Cl
Q = C[C@H](N)C(=O)OCOC(=O)N(c1c(Cl)cc(OC(F)F)cc1Cl)c1nc(Cl)cn([C@@H](C)C2CC2)c1=O.Cl
R = C[C@@H](C1CC1)n1cc(Cl)nc(N(C(=O)OCOC(=O)CN(C)C)c2c(Cl)cc(OC(F)F)cc2Cl)c1=O
S = C[C@@H](C1CC1)n1cc(Cl)nc(N(C(=O)OCCCOP(=O)([O-])[O-])c2c(Cl)cc(OC(F)F)cc2Cl)c1=O.[Na+].[Na+]
T = C[C@@H](C1CC1)n1cc(Cl)nc(N(C(=O)OCOC(=O)CCN)c2c(Cl)cc(OC(F)F)cc2Cl)c1=O.Cl
Put the entries in order of solubility thermodynamic, starting with the largest number. A complete answer lists every label in the requested sequence.
S, R, T, P, Q
(S: 1500 µg/mL, R: 530 µg/mL, T: 30 µg/mL, P: 10 µg/mL, Q: 5 µg/mL)

====

# METHOD SUMMARY: Oral bioavailability in Sprague-Dawley rat at 10 mg/kg by LC-MS/MS analysis
# Assay type: ADME, organism-based
# COND: in vivo
RECORDED ENDPOINT: bioavailability (%)

Example results:
INPUT SMILES	bioavailability / %
C[C@@H](C1CC1)n1cc(Cl)nc(N(C(=O)OCOC(=O)CCN)c2c(Cl)cc(OC(F)F)cc2Cl)c1=O.Cl	27
C[C@@H](C1CC1)n1cc(Cl)nc(N(COP(=O)([O-])[O-])c2c(Cl)cc(OC(F)F)cc2Cl)c1=O.[Na+].[Na+]	25
C[C@@H](C1CC1)n1cc(Cl)nc(N(C(=O)OCOP(=O)(O)O)c2c(Cl)cc(OC(F)F)cc2Cl)c1=O	17
C[C@H](N)C(=O)OCOC(=O)N(c1c(Cl)cc(OC(F)F)cc1Cl)c1nc(Cl)cn([C@@H](C)C2CC2)c1=O.Cl	36

P = CC(C)[C@H](N)C(=O)OCOC(=O)N(c1c(Cl)cc(OC(F)F)cc1Cl)c1nc(Cl)cn([C@@H](C)C2CC2)c1=O.Cl
Q = C[C@@H](C1CC1)n1cc(Cl)nc(N(C(=O)OCCCOP(=O)([O-])[O-])c2c(Cl)cc(OC(F)F)cc2Cl)c1=O.[Na+].[Na+]
// which entry has the larger bioavailability value, P or Q ? // respond with label for picked entry
P

====

# METHOD SUMMARY: Cmax in Sprague-Dawley rat at 10 mg/kg, po by LC-MS/MS analysis
# Format: ADME, organism-based
# Set-up: dose 10 mg/kg, route oral
# COND: Sprague-Dawley, in vivo
RECORDED ENDPOINT: Cmax (nM)

Example results:
INPUT SMILES	Cmax, nM
C[C@H](N)C(=O)OCOC(=O)N(c1c(Cl)cc(OC(F)F)cc1Cl)c1nc(Cl)cn([C@@H](C)C2CC2)c1=O.Cl	730
C[C@@H](C1CC1)n1cc(Cl)nc(N(C(=O)OCOC(=O)CCN)c2c(Cl)cc(OC(F)F)cc2Cl)c1=O.Cl	490

a = C[C@@H](C1CC1)n1cc(Cl)nc(N(C(=O)OCCCOP(=O)([O-])[O-])c2c(Cl)cc(OC(F)F)cc2Cl)c1=O.[Na+].[Na+]
b = C[C@@H](C1CC1)n1cc(Cl)nc(N(COP(=O)([O-])[O-])c2c(Cl)cc(OC(F)F)cc2Cl)c1=O.[Na+].[Na+]
c = CC(C)[C@H](N)C(=O)OCOC(=O)N(c1c(Cl)cc(OC(F)F)cc1Cl)c1nc(Cl)cn([C@@H](C)C2CC2)c1=O.Cl
d = C[C@@H](C1CC1)n1cc(Cl)nc(N(C(=O)OCOP(=O)(O)O)c2c(Cl)cc(OC(F)F)cc2Cl)c1=O
Sort (4 compounds) by Cmax: min first. A complete answer lists every label in the requested sequence.
a, d, c, b
(a: 295 nM, d: 460 nM, c: 740 nM, b: 2150 nM)

The measured values listed here are drawn from ChEMBL document CHEMBL3997831.
